IC50 listing for selected compounds.
- tested target: AXL (Homo sapiens)
- Sequence (P30530 26-894): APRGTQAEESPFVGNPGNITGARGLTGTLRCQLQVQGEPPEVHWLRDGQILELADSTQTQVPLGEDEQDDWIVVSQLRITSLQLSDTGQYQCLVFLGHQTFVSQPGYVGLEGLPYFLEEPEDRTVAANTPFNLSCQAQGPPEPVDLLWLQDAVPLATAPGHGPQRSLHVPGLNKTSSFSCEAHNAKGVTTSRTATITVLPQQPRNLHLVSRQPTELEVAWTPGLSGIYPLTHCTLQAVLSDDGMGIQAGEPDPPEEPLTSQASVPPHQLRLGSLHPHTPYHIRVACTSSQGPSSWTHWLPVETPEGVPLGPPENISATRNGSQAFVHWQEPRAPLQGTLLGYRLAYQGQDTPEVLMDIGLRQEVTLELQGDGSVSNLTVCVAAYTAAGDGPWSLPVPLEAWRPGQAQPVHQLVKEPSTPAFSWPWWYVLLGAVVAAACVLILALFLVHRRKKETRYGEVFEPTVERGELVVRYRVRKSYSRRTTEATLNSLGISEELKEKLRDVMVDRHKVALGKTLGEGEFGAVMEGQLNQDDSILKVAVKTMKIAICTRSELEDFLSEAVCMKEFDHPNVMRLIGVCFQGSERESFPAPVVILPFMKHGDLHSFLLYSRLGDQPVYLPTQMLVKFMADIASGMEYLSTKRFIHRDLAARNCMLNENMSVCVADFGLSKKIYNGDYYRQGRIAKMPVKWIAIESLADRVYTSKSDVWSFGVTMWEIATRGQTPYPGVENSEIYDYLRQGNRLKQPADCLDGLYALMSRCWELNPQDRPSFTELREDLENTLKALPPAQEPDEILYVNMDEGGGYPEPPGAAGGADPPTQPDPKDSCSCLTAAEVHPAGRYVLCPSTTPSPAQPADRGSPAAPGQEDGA
- protocol: AXL enzymatic assay (ADP-Glo)
- Assay type: biochemical
- condition parameters: purified kinase, ATP 50 μM, read-out: AXL Enzymatic Inhibition (%)

# example entries with known answers
smiles data | IC50
Cn1cc(-c2oc3ncnc(Oc4ccc(NC(=O)c5cccn(-c6cccc(F)c6)c5=O)cc4)c3c2-c2cccc(N)c2)cn1 | < 20 nM
CN1CCN(c2cccc(-c3c(-c4cnn(C)c4)oc4ncnc(Oc5ccc(NC(=O)c6cccn(-c7ccc(F)cc7)c6=O)cc5)c34)c2)CC1 | < 20 nM
Cn1cc(-c2oc3ncnc(Oc4ccc(NC(=O)c5cn(C)n(-c6ccc(F)cc6)c5=O)cc4)c3c2-c2cccc(CN3CCNCC3)c2)cn1 | 100 to 50000 nM
O=C(Nc1ccc(Oc2ncnc3[nH]cc(-c4cccnc4)c23)cc1)c1cccn(-c2ccc(F)cc2)c1=O | < 20 nM

Now examine the next entry.
Fill in IC50 for Cn1cc(-c2oc3ncnc(Oc4ccc(NC(=O)c5cccn(-c6ccc(F)cc6)c5=O)cc4)c3c2-c2ccc(N3CCNCC3)cc2)cn1 tested with AXL (Homo sapiens).
< 20 nM
